Source: ChEMBL document CHEMBL2311386

test system: SK-N-MC; assay: Cytotoxicity against human SK-N-MC cells assessed as growth inhibition after 72 hrs by MTT assay; assay type: functional, cell-based
pIC50: −log10 of the molar value.

Structure string: CCNC(=S)N/N=C(\c1ccc(C)cc1)c1ccccn1
pIC50: 7.89

Structure string: Cc1ccc(/C(=N\NC(=S)N(C)C)c2ccccn2)cc1
pIC50: 8.15

Structure string: CN(C)C(=S)NN=C(c1ccccn1)c1ccccn1
pIC50: 8.15

Structure string: CNC(=S)N/N=C(\c1ccc(C(C)(C)C)cc1)c1ccccn1
pIC50: 7.82

Structure string: COc1ccc(/C(=N\NC(N)=S)c2ccccn2)cc1
pIC50: 5.40

Structure string: COc1ccc(/C(=N\NC(=S)N(C)C)c2ccccn2)cc1
pIC50: 7.77

Structure string: Cc1ccc(/C(=N\NC(=S)Nc2ccccc2)c2ccccn2)cc1
pIC50: 7.62

Structure string: CCNC(=S)N/N=C(\c1ccc(C(C)(C)C)cc1)c1ccccn1
pIC50: 7.70

Structure string: CN(C)C(=S)N/N=C(\c1ccccc1)c1ccccn1
pIC50: 8.30

Structure string: S=C(N/N=C(\c1ccccc1)c1ccccn1)Nc1ccccc1
pIC50: 7.80

Structure string: CC(C)(C)c1ccc(/C(=N\NC(N)=S)c2ccccn2)cc1
pIC50: 7.85

Structure string: CCNC(=S)N/N=C(\c1ccc(OC)cc1)c1ccccn1
pIC50: 7.80

Structure string: CC(C)(C)c1ccc(/C(=N\NC(=S)Nc2ccccc2)c2ccccn2)cc1
pIC50: 6.96

Structure string: COc1ccc(/C(=N\NC(=S)Nc2ccccc2)c2ccccn2)cc1
pIC50: 7.72

Structure string: CNC(=S)N/N=C(\c1ccccc1)c1ccccn1
pIC50: 7.70

Structure string: CCNC(=S)N/N=C(\c1ccccc1)c1ccccn1
pIC50: 7.85

Structure string: NC(=S)N/N=C(\c1ccccc1)c1ccccn1
pIC50: 5.42

Structure string: CN(C)C(=S)N/N=C(\c1ccc(C(C)(C)C)cc1)c1ccccn1
pIC50: 7.14

Structure string: Cc1ccc(/C(=N\NC(N)=S)c2ccccn2)cc1
pIC50: 6.84

Structure string: CNC(=S)N/N=C(\c1ccc(C)cc1)c1ccccn1
pIC50: 7.82

Structure string: CNC(=S)N/N=C(\c1ccc(OC)cc1)c1ccccn1
pIC50: 7.66
